- procedure-details: NCI Yeast Anticancer Drug Screen. Data for the cln2 rad14 strain (AID 165);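 also: 0% = growth equal to vehicle treated cultures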
- measurement-conditions: S. cerevisiae cln2 rad14 strain, at 50.0 µM, stronger effect = higher value
About 79,000 compounds went through this panel and 15% of them were active in at least one assay; those are over-represented in the sample as a whole.
Condition met means recorded growth inhibition is 60% or above; Condition not met means it is below 60%.

compound="CC1SC(=S)N(c2ccc(Cl)cc2)C1=O (stereo not given)" class="Condition not met"
compound="CCCCCCC(=O)CC(SCCN)c1ccccc1Cl (stereo not given)" class="Condition met"
compound=c1ccc(CN2CCc3[nH]c4ccccc4c3C2)cc1 class="Condition not met"
compound=C/C=C(/CN/C(=C\[N+](=O)[O-])c1ccccc1)c1ccccc1 class="Condition met"
compound=CN(C)c1ccc(/C=C(\C#N)c2c(F)cccc2F)cc1 class="Condition not met"
compound=O=C(NNC(=O)c1cccc(C(=O)NNC(=O)c2ccc(Cl)c(Cl)c2)n1)c1ccc(Cl)c(Cl)c1 class="Condition met"
compound="O=S(=O)(c1ccc(OCC(O)COc2ccc(S(=O)(=O)c3ccc(OCC4CO4)cc3)cc2)cc1)c1ccc(OCC2CO2)cc1 (stereo not given)" class="Condition not met"
compound=Cc1ccc(SSCCCCCS(=O)O)cc1 class="Condition not met"
compound=O=[N+]([O-])c1ccc2c(c1)OCO2 class="Condition not met"
compound="CC1=NN(c2nc(N)nc(C(C)Sc3cc(Cl)c(C)cc3S(N)(=O)=O)n2)C(C)(C)C1 (stereo not given)" class="Condition not met"
compound=O=C(O)/C(=C/c1c(O)ccc2ccccc12)c1csc(-c2nc(/C(=C\c3c(O)ccc4ccccc34)C(=O)O)cs2)n1 class="Condition met"
compound=O=[N+]([O-])c1ccc2c(c1)Cc1cc(O)c(I)cc1-2 class="Condition met"
compound=CC[n+]1c(/C=C/c2cc(C(=O)OC)n3c2sc2ccccc23)sc2ccccc21 class="Condition met"
compound=Cc1ccc(S(=O)(=O)NC(=O)CC2CCCCC2)cc1 class="Condition met"
compound=O=C1Nc2ccccc2/C1=N\N=c1/scc(-c2ccccc2)n1-c1ccccc1 class="Condition met"
compound=COC(=O)c1ccc(OC)cc1 class="Condition not met"
compound="O=C1C=CC(=Nc2cc3c(cc2Br)-c2ccccc2C3Br)O1 (stereo not given)" class="Condition not met"
compound=CCc1c(Nc2ccccc2C)[nH]c(N)nc1=S class="Condition not met"
compound=Cc1c(Cl)nc(-c2ccccc2)nc1C(=O)CCl class="Condition not met"
compound=O=C1c2ccccc2C(=O)c2sccc21 class="Condition not met"
compound=COc1ccc2nc3cc(Cl)ccc3c(NCCNc3c4ccc(Cl)cc4nc4ccc(OC)cc34)c2c1 class="Condition met"
compound=Cc1ccccc1[P+](C)(c1ccccc1C)c1ccccc1C class="Condition not met"
compound=O=c1[nH]ccc(CNC23CC4CC(CC(C4)C2)C3)c1O class="Condition not met"
compound=Cc1ccc2c(ccc(CC(=S)[S-])[n+]2C)c1 class="Condition not met"
compound=O=[N+]([O-])c1cccc(S(=O)(=O)N/N=C/c2cc(I)cc([N+](=O)[O-])c2O)c1 class="Condition not met"
compound=COc1cc2oc(-c3ccc(O)cc3O)c(CC=C(C)C)c(=O)c2c(O)c1/C=C/C(C)C class="Condition met"
compound=O=[N+]([O-])c1ccc(N/N=C/COCCO)c([N+](=O)[O-])c1 class="Condition not met"
compound="CCOC(=O)C1SC(=Nc2ccc(Cl)cc2)N=C1C (stereo not given)" class="Condition met"
compound=Cc1cc(=O)oc2c(C)c3oc(CBr)cc3cc12 class="Condition met"
compound=C1CSCCCSCCCSCCCSCCCSC1 class="Condition not met"
compound=O=C(C(Oc1ccc(Cl)cc1)Oc1ccc(Cl)cc1)N(O)c1ccccc1OCc1ccccc1 class="Condition not met"
compound=O=C(NCCCNCCNC(=O)c1cc(-c2ccccc2)nc2ccccc12)c1cc(-c2ccccc2)nc2ccccc12 class="Condition met"
compound=N#Cc1c(Cl)nc2ccccc2c1N=[N+]=[N-] class="Condition not met"
compound=O=C1c2ccccc2C(=O)N1c1ccccc1 class="Condition not met"
compound=O=C(NNc1ccc(F)cc1)C12CC3CC(CC(C3)C1)C2 class="Condition not met"
compound=O=C(c1ccco1)N(C(=S)N1CCN(c2ccccn2)CC1)c1ccccc1 class="Condition not met"
compound=CN(C)CCC(/C=C/c1ccccc1)=N\Nc1ccc(Cl)cc1Cl class="Condition met"
compound=CCOC(=O)C(CCSC)C(=O)OCC class="Condition met"
compound="CC(C)CCCC(C)[C@H]1CCC(C2C[C@@H](O)[C@@H]3CC(O)[C@@H](O)C[C@]3(CO)C2=O)[C@]1(C)CCO (stereo not given in full)" class="Condition met"
compound=CCCCCCCCCC(=O)NN=C(C)C class="Condition met"
compound=CCOC(=O)C(C)(c1c(C)[nH]c2ccccc12)c1c(C)[nH]c2ccccc12 class="Condition met"
compound=CCN(CC)CCCNc1nccc2c(C)c3[nH]c4ccncc4c3cc12 class="Condition not met"
compound="OCC(O)C(OC1OC(CO)C(O)C(O)C1O)C(O)C(/C=N/Nc1ccc(Br)cc1)=N/Nc1ccc(Br)cc1 (stereo not given)" class="Condition met"
compound=Oc1c(Cl)c2ccccc2c2ccccc12 class="Condition met"

###

- procedure-details: NCI Yeast Anticancer Drug Screen. Data for the cln2 rad14 strain (AID 165);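 also: 0% = growth equal to vehicle treated cultures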
- measurement-conditions: S. cerevisiae cln2 rad14 strain, at 50.0 µM
Compounds without any hit were thinned out: in the full panel of roughly 79,000, 15% have a hit. Activity calls are given as the source filed them. No stated cut-off is given here; in the data, active means growth inhibition above about 70%; inactive means the rest.
Outcomes: active, inactive

molecule=CN(C)CC(CN(C)C)C(=O)c1ccc(Oc2ccc(Cl)c(Cl)c2)cc1 class=active
molecule=Cc1cc2c(cc1Cl)Sc1nnc(C)n1S2(=O)=O class=inactive
molecule=C=C(Cl)C(=NC(C)(C)C)Nc1ccccc1C class=inactive
molecule="C=CCC(O)C(=O)OC1CC(C)CCC1C(C)(C)c1ccccc1 (centres undefined)" class=active
molecule=Nc1cc2c(c[n+](CCCCCCCCCC[n+]3cc4c5ccccc5c(N)cc4c4ccccc43)c3ccccc23)c2ccccc12 class=active
molecule=O=C1NC(=O)N(c2ccc(Cl)c(Cl)c2)C1=O class=inactive
molecule="CC(N)C(O)c1ccc2ccc3ccccc3c2c1 (centres undefined)" class=inactive
molecule="C=C(C)C(=O)OC1CC2=CC(CC3(C)OC3C3OC(=O)C(=C)C13)OC2=O (centres undefined)" class=inactive
molecule=CC#Cc1cc2c(cc1O)CC[C@@H]1[C@@H]2CC[C@]2(C)[C@@H](O)CC[C@@H]12 class=active
molecule=O=Nc1cc(-c2ccccc2)c2ccccc2c1O class=active
molecule=O=S(=O)(O)c1cc2ccccc2c(O)c1N=Nc1ccccc1 class=inactive
molecule=ClCc1nnc2n1-c1ccc(Cl)cc1SC2 class=inactive
molecule=Cc1nc(N2N=C(c3ccc(Cl)cc3)CCC2=O)sc1[N+](=O)[O-] class=active
molecule=COc1cccnc1/C=N/NC(N)=S class=inactive
molecule=CCC(=O)Sc1ccccc1C(=O)Nc1ccc(Cl)cc1 class=inactive
molecule=COc1cc2c(ccc3cc4cccc[n+]4cc32)c(Br)c1OC class=inactive
molecule=CN(C)c1nc(=Nc2ccc(N=c3nc(N(C)C)ss3)cc2)ss1 class=inactive
molecule="C1C2OC2C2C1C1CC2C2OC12 (centres undefined)" class=inactive
molecule=Nc1ccc2ccccc2c1Cc1c(O)ccc2ccccc12 class=active
molecule=COc1ccc(-c2cscc2N)cc1 class=inactive
molecule="C=C1CC(C)(COc2ccc3c(C)c(C)c(=O)oc3c2C)OC1=O (centres undefined)" class=inactive
molecule=CCOC(=O)NCCCc1ccc2oc3ccccc3c2c1 class=inactive
molecule=CN(C)CCC(/C=C/c1ccccc1)=N\Nc1c(F)c(F)c(F)c(F)c1F class=inactive
molecule="O=C(CC1(O)C(=O)Nc2c(Cl)cc(Cl)cc21)c1ccc(Cl)cc1 (centres undefined)" class=active

###

- procedure-details: NCI Yeast Anticancer Drug Screen. Data for the cln2 rad14 strain (AID 165);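 also: 0% = growth equal to vehicle treated cultures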
- measurement-conditions: S. cerevisiae cln2 rad14 strain, at 50.0 µM
This is part of a sample that, as a whole, favours compounds with a hit. Of some 79,000 tested, about 15% had one in any assay. The source made the active and inactive calls. No stated cut-off is given here; in the data, active means growth inhibition above about 70%; inactive means the rest.
Outcomes: 1 (yes) for active, 0 (no) for inactive

compound=c1ccc(C[n+]2cccc(-c3cc4ccccc4[nH]3)c2)cc1 class="1 (yes)"
compound=CC(C)CNc1cc(Cl)nc(N)n1 class="1 (yes)"
compound=COc1ccc(NC(=O)CCC(=O)CC(=O)c2ccncc2)cc1 class="0 (no)"
compound="CC1CN(CC(O)c2ccc(Br)cc2)CC(C)O1 (stereo unspecified)" class="0 (no)"
compound=Nc1ccc(Cc2ccc(N)cc2[N+](=O)[O-])c([N+](=O)[O-])c1 class="0 (no)"
compound="CCOC(=O)NC(c1ccc(C(NC(=O)OCC)P(=O)(O)NC23CC4CC(CC(C4)C2)C3)cc1)P(=O)(O)NC12CC3CC(CC(C3)C1)C2 (stereo unspecified)" class="1 (yes)"
compound=Cc1c(N)cc(I)cc1[N+](=O)[O-] class="0 (no)"
compound=C/C(=N/O)c1cc([N+](=O)[O-])c(O)cc1O class="0 (no)"
compound="Cc1ccc(C)c(N2C(=O)C(=O)C(c3nc4ccccc4o3)/C(=N\\NC(=O)c3ccccc3O)C2=O)c1 (stereo unspecified)" class="0 (no)"
compound="CC(=O)C1C(S)CC2C3CC=C4CC(O)CCC4(C)C3CCC21C (stereo unspecified)" class="1 (yes)"
compound=CSc1ccc(/C=N/NC(N)=S)cc1 class="0 (no)"
